molecular target: Na-GST-1 (Necator americanus, UniProt D3U1A5); construct: 206 residues ordered; homodimer; Nu class; test: CDNB-glutathione conjugation, absorbance at […] nm; format: biochemical; conditions: read-out: Na-GST-1
readout_kind: IC50 (µM)
The answer is to be given in µM; state only the numeric part.

Query :: Suppose we examine the compound CCCSc1ccc2nc(NC(=O)OC)[nH]c2c1 [albendazole] ; what IC50 value has been reported?
Result :: 87

====

Target: Na-GST-1 (Necator americanus)
Construct: 206 residues ordered; homodimer; Nu class
Sequence (D3U1A5 1-206): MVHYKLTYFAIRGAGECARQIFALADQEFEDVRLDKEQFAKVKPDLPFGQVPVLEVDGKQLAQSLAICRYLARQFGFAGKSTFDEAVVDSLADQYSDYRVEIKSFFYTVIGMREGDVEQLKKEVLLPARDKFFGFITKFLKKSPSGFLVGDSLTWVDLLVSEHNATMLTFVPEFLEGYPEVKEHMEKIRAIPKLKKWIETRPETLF
Assay: CDNB-glutathione conjugation, absorbance at […] nm
Type: biochemical
readout_kind: IC50 (µM)
Write the value in µM as a bare number.

Query :: State the recorded IC50 for this entry: [Cl][Sn]([c]1ccccc1)([c]1ccccc1)[c]1ccccc1 [chlorotriphenyltin]
Result :: 22

====

molecular target: Na-GST-2 (Necator americanus, UniProt D3U1A6); construct: homodimer; Nu class; glutathione carried over from fermentation; assay: CDNB-glutathione conjugation, absorbance at […] nm
Sequence (D3U1A6 1-206): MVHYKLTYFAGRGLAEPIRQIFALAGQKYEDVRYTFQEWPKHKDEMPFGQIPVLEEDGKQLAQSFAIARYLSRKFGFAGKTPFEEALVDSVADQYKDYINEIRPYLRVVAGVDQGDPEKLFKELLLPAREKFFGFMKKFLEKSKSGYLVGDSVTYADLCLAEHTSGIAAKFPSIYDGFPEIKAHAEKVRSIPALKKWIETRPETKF
readout_kind: pIC50
Recall that pIC50 is obtained by taking minus log10 of the concentration measured in molar.

{"compound": "CCCSc1ccc2nc(NC(=O)OC)[nH]c2c1", "pIC50": 4.17}
{"compound": "O=C(C1CCCCC1)N1CC(=O)N2CCc3ccccc3C2C1 (stereo not drawn)", "pIC50": 2.48}

Query :: Consider the compound `[Cl][Sn]([c]1ccccc1)([c]1ccccc1)[c]1ccccc1` and give its measured pIC50.
Result :: 6.15
